molecular target: M4 muscarinic receptor (Homo sapiens); construct: expressed in transfected cells; host or cells: CHO (M4-CHO); experiment: cell-based
Sequence (P08173 whole entry): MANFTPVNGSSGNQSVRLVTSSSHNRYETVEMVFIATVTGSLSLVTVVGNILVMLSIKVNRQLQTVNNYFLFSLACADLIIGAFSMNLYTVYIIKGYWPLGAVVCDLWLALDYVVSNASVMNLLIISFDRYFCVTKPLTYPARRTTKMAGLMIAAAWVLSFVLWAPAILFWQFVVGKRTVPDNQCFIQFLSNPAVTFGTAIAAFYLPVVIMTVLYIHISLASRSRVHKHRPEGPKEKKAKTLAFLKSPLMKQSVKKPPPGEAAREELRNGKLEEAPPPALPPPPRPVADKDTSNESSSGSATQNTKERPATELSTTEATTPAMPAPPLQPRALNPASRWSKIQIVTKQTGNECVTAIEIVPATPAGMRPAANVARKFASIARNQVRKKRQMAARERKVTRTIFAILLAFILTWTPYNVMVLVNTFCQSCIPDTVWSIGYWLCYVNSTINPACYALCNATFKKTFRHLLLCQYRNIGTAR
PARAMETER MEASURED: EC50

molecule="CCOC(=O)N1C2CCC1CC(N1CCC(N(CC(=O)CC)c3ccc(F)cc3)CC1)C2 (centres unmarked)" target_or_system="M4 muscarinic receptor (Homo sapiens)" parameter_measured=EC50 test_result="> 5 µM"
molecule="CCOC(=O)N1C2CCC1CC(N1CCC(N(C(C)=O)C3CCCCC3)CC1)C2 (centres unmarked)" target_or_system="M4 muscarinic receptor (Homo sapiens)" parameter_measured=EC50 test_result="< 2 µM"
molecule="CCCN(C1CCN(C2CC3CCC(C2)N3C(=O)OCC)CC1)S(=O)(=O)c1ccc(C(F)(F)F)cc1 (centres unmarked)" target_or_system="M4 muscarinic receptor (Homo sapiens)" parameter_measured=EC50 test_result="> 5 µM"
molecule="CCOC(=O)N1C2CCC1CC(N1CCC(N(Cc3ccccc3)C(C)=O)CC1)C2 (centres unmarked)" target_or_system="M4 muscarinic receptor (Homo sapiens)" parameter_measured=EC50 test_result="2 to 5 µM"
molecule="CCOC(=O)N1C2CCC1CC(N1CCC(Nc3ccc(F)cc3)CC1)C2 (centres unmarked)" target_or_system="M4 muscarinic receptor (Homo sapiens)" parameter_measured=EC50 test_result="> 5 µM"
